Target or system RARα (Homo sapiens); recorded quantity Ki.
metric: Ki (µM)

Below, 4 molecules whose answers are already recorded.
[[record]]
molecule = "COc1cc2c(cc1\\C(C)=C/C=C/C(C)=C/C(=O)O)C(C(C)C)=CC(C)(C)O2 [Compound 43]"
val = 0.243

[[record]]
molecule = "CCOc1cc2c(cc1\\C(C)=C/C=C/C(C)=C/C(=O)O)C(CC)=CC(C)(C)O2 [Compound 45]"
val = 0.003

[[record]]
molecule = "CCOc1c(\\C(=C/C=C/C(C)=C/C(=O)O)CC)cc2c(c1Cl)OC(C)(C)C=C2C(C)C [Compound 51]"
val = 0.422

[[record]]
molecule = "CCOc1cc2c(cc1\\C(C)=C(F)/C=C/C(C)=C/C(=O)O)C=CCC2(C)C [Compound A-76]"
val = 1.6


[a] CC/C(=C(F)/C=C/C(C)=C/C(=O)O)c1cc2c(cc1OC)OC(C)(C)C=C2C(C)(C)C [Compound 131]
[b] CCCOc1cc2c(cc1\C(C)=C(F)/C=C/C(C)=C/C(=O)O)C(C(C)C)=CC(C)(C)O2 [Compound 125]
Identify the entry with the smaller Ki: a or b . // respond with label for picked entry
b
(b: 0.012 µM, a: 0.837 µM)

###

Target: RXRα (Homo sapiens)
metric: Ki (nM)

[[record]]
smiles_entry = "CC/C(=C(F)/C=C/C(C)=C/C(=O)O)c1cc2c(cc1OC)OC(C)(C)C=C2C"
val = 69


[A] CCC1=CC(C)(C)Oc2cc(OC)c(\C(C)=C/C=C/C(C)=C/C(=O)O)cc21
[B] CCOc1cc2c(cc1\C(=C/C=C/C(C)=C/C(=O)O)CC)C(C(C)(C)C)=CCC2(C)C
[C] CCOc1cc2c(cc1\C(C)=C/C=C/C(C)=C/C(=O)O)C(C(C)C)=CC(C)(C)O2
Would you mind ranking these molecules by ascending Ki? Submit the labels in the order that the ranking request calls for.
B, C, A
(B: 5 nM, C: 15 nM, A: 49 nM)

###

Target: RXRβ (UniProt P28704)
Assay: holoreceptor transactivation assay, RXRβ
Assay type: cell-based
Conditions: percentage compared to the standard compound
metric: RXR Trans. efficacy (number in parentheses) β (%)

Below, 2 compounds whose answers are already recorded.
[[record]]
smiles_entry = "CCOc1c(\\C(CC)=C(F)/C=C/C(C)=C/C(=O)O)cc2c(c1Cl)OC(C)(C)C=C2C(C)C"
units_text = "%"
val = 21

[[record]]
smiles_entry = "CC/C(=C/C=C/C(C)=C/C(=O)O)c1cc2c(cc1OC)OC(C)(C)C=C2C(C)C"
units_text = "%"
val = 94


[a] CCOc1cc2c(cc1\C(C)=C(F)/C=C/C(C)=C/C(=O)O)C(C)=CCC2(C)C
[b] CCOc1cc2c(cc1\C(=C/C=C/C(C)=C/C(=O)O)CC)C(C)=CCC2(C)C
Identify the entry with the smaller RXR Trans. efficacy (number in parentheses) β: a or b . // respond with label for picked entry
b

###

Molecular target: RXRα (Homo sapiens, UniProt P19793)
Construct: expressed in transfected cells
Sequence (P19793 whole entry): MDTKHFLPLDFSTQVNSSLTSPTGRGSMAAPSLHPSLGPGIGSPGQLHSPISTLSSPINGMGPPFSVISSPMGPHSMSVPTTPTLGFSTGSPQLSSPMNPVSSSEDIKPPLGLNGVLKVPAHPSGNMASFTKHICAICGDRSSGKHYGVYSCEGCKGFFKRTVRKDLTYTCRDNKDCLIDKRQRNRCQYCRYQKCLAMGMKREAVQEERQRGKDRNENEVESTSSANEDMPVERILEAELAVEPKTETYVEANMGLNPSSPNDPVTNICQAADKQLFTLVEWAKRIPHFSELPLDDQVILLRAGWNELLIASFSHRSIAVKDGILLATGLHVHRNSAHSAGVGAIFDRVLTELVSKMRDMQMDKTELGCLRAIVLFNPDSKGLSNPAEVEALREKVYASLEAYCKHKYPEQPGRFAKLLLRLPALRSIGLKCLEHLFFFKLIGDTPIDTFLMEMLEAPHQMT
Assay: holoreceptor transactivation assay, RXRα
Assay type: cell-based
Details: percentage compared to the standard compound; read-out: RXR Trans. efficacy (number in parentheses) α
metric: Emax (%)

Below, 2 compounds whose answers are already recorded.
[[record]]
compound = "CCOc1cc2c(cc1\\C(CC)=C(F)/C=C/C(C)=C/C(=O)O)C(C)=CC(C)(C)O2 [Compound 132]"
val = 15

[[record]]
compound = "CCOc1c(\\C(CC)=C(F)/C=C/C(C)=C/C(=O)O)cc2c(c1Br)C(C)(C)CC=C2C(C)C [Compound A-170]"
val = 60


[P] CCOc1cc2c(cc1\C(CC)=C(F)/C=C/C(C)=C/C(=O)O)C(CC)=CCC2(C)C [Compound A-78]
[Q] CCOc1cc2c(cc1\C(C)=C/C=C/C(C)=C/C(=O)O)C(C(C)(C)C)=CCC2(C)C [Compound A-17]
For this pair, P and Q , which shows a numerically higher Emax? // respond with label for picked entry
Q
